Tested on: HOSE1C
Assay: drug sensitivity score (DSS) from 5-point dose-response viability curve (DSS (area-under-curve based score)); higher = more sensitive (stronger growth inhibition or killing); extreme values may be limits of the assay
Conditions: exposure time: 72 h; concentration range: 5 concentrations over 10,000-fold range
MEASUREMENT KIND: drug sensitivity score
# respond with the number and nothing more

The cases that follow already have their drug sensitivity score on record.
COMPOUND	MEASUREMENT KIND	READOUT VALUE
CN(C)CC#Cc1ccc(OCCCc2sc(N3CCc4cccc(C(=O)Nc5nc6ccccc6s5)c4C3)nc2C(=O)O)c(F)c1	drug sensitivity score	22.7
COc1ccc(Cn2ccc3ccc(C(=O)NO)cc32)cc1	drug sensitivity score	2.5
Nc1nc2cc(-c3ccc4ncc(C(=O)N5CCOCC5)n4c3)ccc2o1 [Serabelisib]	drug sensitivity score	0

Next item in the queue.
# drug sensitivity score lookup, item CC(C)(C)NC(=O)[C@H]1CC[C@H]2[C@@H]3CC[C@H]4NC(=O)C=C[C@]4(C)[C@H]3CC[C@]12C [Finasteride] 0

###

Tested on: COV318
Test: drug sensitivity score (DSS) from 5-point dose-response viability curve (DSS (area-under-curve based score)); higher = more sensitive (stronger growth inhibition or killing); extreme values may be limits of the assay
Conditions: exposure time: 72 h; concentration range: 5 concentrations over 10,000-fold range
Tag: True if measured drug sensitivity score is not below 0.2, False if it is.

MOLECULE	CLASS ASSIGNMENT
CNC(=O)c1ccc(N2C(=S)N(c3ccc(C#N)c(C(F)(F)F)c3)C(=O)C2(C)C)cc1F [Enzalutamide]	True
CN(C)CCCOc1ccc(-c2ccc3ncc4c(c3c2)n(C2CCOCC2)c(=O)n4C)cn1	False
O=C(/C=C\n1cnc(-c2cc(C(F)(F)F)cc(C(F)(F)F)c2)n1)NNc1ccccn1 [Verdinexor]	True
CC(C)(C#N)c1cc(Cn2cncn2)cc(C(C)(C)C#N)c1	False
Cc1cn(-c2cc(NC(=O)c3ccc(C)c(Nc4nccc(-c5cccnc5)n4)c3)cc(C(F)(F)F)c2)cn1	False

Please indicate if the recorded drug sensitivity score for Cc1nc(-c2cn3c(n2)-c2ccc(-c4cnn(C(C)(C)C(N)=O)c4)cc2OCC3)n(C(C)C)n1 meets or exceeds 0.2. True

Is it the case that O=C(O)c1ccc2c(c1)nc(Nc1cccc(Cl)c1)c1ccncc12 has drug sensitivity score reaching or exceeding 0.2? True

###

Tested on: OVCAR8
Experiment: drug sensitivity score (DSS) from 5-point dose-response viability curve (DSS (area-under-curve based score)); higher = more sensitive (stronger growth inhibition or killing); extreme values may be limits of the assay
Conditions: exposure time: 72 h; concentration range: 5 concentrations over 10,000-fold range
MEASUREMENT KIND: drug sensitivity score

Some compounds with recorded drug sensitivity score:
COMPOUND	drug sensitivity score
CC1(COc2ccc3c(c2)ncn3-c2ccc3cccc(N4CCC(N)CC4)c3n2)COC1	6.9
Nc1ncnc2c1nc(N)n2[C@@H]1O[C@H](CO)[C@@H](O)[C@H]1O	20.5
O=C(Nc1cc(Oc2cc(F)c(NC(=O)C3(C(=O)Nc4ccc(F)cc4)CC3)cc2F)ccn1)C1CC1	6
Nc1ncn([C@@H]2O[C@H](CO)[C@@H](O)[C@H]2O)c(=O)n1	3.4
CN(C)Cc1ccc(S(=O)(=O)n2ccc(/C=C/C(=O)NO)c2)cc1	11.8
C=CC(=O)N1CCC(Oc2cc3c(Nc4ccc(Cl)c(Cl)c4F)ncnc3cc2OC)CC1	0

Look up drug sensitivity score: CO[C@H]1C[C@@H]2CC[C@@H](C)[C@@](O)(O2)C(=O)C(=O)N2CCCC[C@H]2C(=O)O[C@H]([C@H](C)C[C@@H]2CC[C@@H](OP(C)(C)=O)[C@H](OC)C2)CC(=O)[C@H](C)/C=C(\C)[C@@H](O)[C@@H](OC)C(=O)[C@H](C)C[C@H](C)/C=C/C=C/C=C/1C 6.8

What drug sensitivity score value was documented for this compound, CC(C)N(CCCNC(=O)Nc1ccc(C(C)(C)C)cc1)C[C@H]1O[C@@H](n2cc(Br)c3c(N)ncnc32)[C@H](O)[C@@H]1O ? 0

Fill blank: measured drug sensitivity score of the compound O=c1[nH]cc(F)c(=O)[nH]1 is ____. 2.3

For Cc1cc(Nc2cc(N3CCN(C)CC3)nc(Sc3ccc(NC(=O)C4CC4)cc3)n2)n[nH]1 , what is its reported drug sensitivity score? 6.5

Returns the measured drug sensitivity score for the input compound. Input: N#Cc1ccnc(N2C(=O)CC[C@H]2C(=O)N(c2cncc(F)c2)[C@H](C(=O)NC2CC(F)(F)C2)c2ccccc2Cl)c1 0

Bench note: what drug sensitivity score did Cc1cnc(-c2ccccc2C(C)C)nc1NCc1ccc(-n2ccnn2)cc1 show? 0

Fill in: drug sensitivity score of CN1CCN(c2ccc(C(=O)Nc3n[nH]c4ccc(Cc5cc(F)cc(F)c5)cc34)c(NC3CCOCC3)c2)CC1 is ___ 0

Requested read-out: drug sensitivity score. Entry: O=C(Nc1ccncc1)C(=O)c1cn(Cc2ccc(Cl)cc2)c2ccccc12 6.4

What does the data say about its drug sensitivity score? Entry: CN(C)C1CCN(C(=O)c2ccc(NC(=O)Nc3ccc(-c4nc(N5CCOCC5)nc(N5CCOCC5)n4)cc3)cc2)CC1 7.5

Looking for the measured drug sensitivity score of C[C@]1(c2nc3c(C(N)=O)cccc3[nH]2)CCCN1 , can you help? 0.2

Values were extracted from the supplement of paper PMC11616607.
